Entries and their measured mass density follow.
Settings: 298.2 K; 101.33 kPa; Liquid; Pycnometric method
assayEndpoint: mass density (kg/m3)

compound: CCCCn1cc[n+](C)c1.F[P-](F)(F)(F)(F)F [1-butyl-3-methylimidazolium hexafluorophosphate]
valueMeasured: 1380
--
compound: CCC(=O)O [propanoic acid]
valueMeasured: 992
--
compound: CCCCn1cc[n+](C)c1.COCCOCCOS(=O)(=O)[O-] [1-butyl-3-methylimidazolium 2-(2-methoxyethoxy)ethyl sulfate]
valueMeasured: 1170
--
compound: CCn1cc[n+](C)c1.Cc1ccc(S(=O)(=O)[O-])cc1 [1-ethyl-3-methylimidazolium 4-methylbenzenesulfonate]
valueMeasured: 1210
--
compound: CCC(=O)OC(C)c1ccccc1 (stereo not drawn) [1-phenylethyl propionate]
valueMeasured: 1007
--
compound: C=COC(=O)CC [vinyl propanoate]
valueMeasured: 919
--
compound: CC(O)c1ccccc1 (stereo not drawn) [1-phenylethanol]
valueMeasured: 1010
--
compound: CCCCn1cc[n+](C)c1.F[B-](F)(F)F [1-butyl-3-methylimidazolium tetrafluoroborate]
valueMeasured: 1200

----------
Entries and their measured refractive index follow.
Test: refractive index (Na D-line) (dimensionless)
Conditions: 298.2 K; 101.33 kPa; Liquid; Standard Abbe refractometry

molecule: CCC(=O)OC(C)c1ccccc1 (stereo not drawn) [1-phenylethyl propionate]
refractive index: 1.4865
//
molecule: CCC(=O)O
refractive index: 1.382
//
molecule: CCCCn1cc[n+](C)c1.F[P-](F)(F)(F)(F)F [1-butyl-3-methylimidazolium hexafluorophosphate]
refractive index: 1.41
//
molecule: C=COC(=O)CC [vinyl propanoate]
refractive index: 1.402
//
molecule: CCn1cc[n+](C)c1.Cc1ccc(S(=O)(=O)[O-])cc1 [1-ethyl-3-methylimidazolium 4-methylbenzenesulfonate]
refractive index: 1.538
//
molecule: CCCCn1cc[n+](C)c1.F[B-](F)(F)F [1-butyl-3-methylimidazolium tetrafluoroborate]
refractive index: 1.422
//
molecule: CC(O)c1ccccc1 (stereo not drawn)
refractive index: 1.5225
//
molecule: CCCCn1cc[n+](C)c1.COCCOCCOS(=O)(=O)[O-] [1-butyl-3-methylimidazolium 2-(2-methoxyethoxy)ethyl sulfate]
refractive index: 1.48

The values you see were collected from the NIST ThermoML archive (doi:10.1016/j.fluid.2007.10.011).
